FYI, the data here is from PubChem BioAssay AID624467.

Biological target: Trace amine-associated receptor 1 (Homo sapiens) (UniProt Q96RJ0)
Sequence (Q96RJ0 whole entry, looked up): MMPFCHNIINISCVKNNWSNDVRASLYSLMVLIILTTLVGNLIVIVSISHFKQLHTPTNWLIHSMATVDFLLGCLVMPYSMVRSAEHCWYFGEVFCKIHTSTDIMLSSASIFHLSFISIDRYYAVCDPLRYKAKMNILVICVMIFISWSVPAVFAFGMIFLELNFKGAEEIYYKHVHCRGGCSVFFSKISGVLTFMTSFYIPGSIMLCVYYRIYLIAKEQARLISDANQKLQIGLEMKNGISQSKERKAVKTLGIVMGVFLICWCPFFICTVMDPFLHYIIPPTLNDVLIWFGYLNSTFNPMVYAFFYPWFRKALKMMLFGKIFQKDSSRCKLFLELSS
Assay: activators of TAAR1 calcium mobilization – Fluo-8 calcium fluorescence, CHO RD-HGA16 cells, primary screen (AID 624467)
Settings: CHO RD-HGA16 TAAR1, Fluo-8 calcium fluorescence; at 3 µM; stronger effect = higher value; vehicle wells 0%, saturating PEA agonist 100%
Out of some 360,000 compounds screened, about 3,600 (1%) were called active. The entries come from a sample that favours actives as a whole.
I'd be grateful if you could share measured activation for these entries.
Your answer should be a plain number; it is taken to be in %.

Give Trace amine-associated receptor 1 (Homo sapiens) (UniProt Q96RJ0) activation for CC(C)(C)NCc1cc(Br)ccc1OC1CCCC1 1.46

Note, next up: COc1ccc(C)cc1NC(=S)N1CCOCC1 0.86

Same question, CCN1C(=O)N[C@@H]2C[C@H](C(=O)N3CCCC3)[C@H](C)[C@H](c3ccccc3)C[C@@H]21 this time 0.86

// repeat for CC(NC(=O)CC1SC(N)=NC1=O)c1ccccc1 (stereo unspecified) and report 4.22

Now the compound OC(CNCCc1ccc(Cl)cc1Cl)COc1ccccc1 (stereo unspecified) 86

Also CN[C@H]1C[C@H]2c3[nH]c4c(-c5ccccc5)cccc4c3CCN2C(=O)[C@H]1[C@H](C)O ? 4.95

Ok, now COc1ccc(C2c3ccc(O)cc3Oc3ncn(CCCO)c(=N)c32)cc1OC (stereo unspecified) 0.73

One more compound: CCS(=O)(=O)N1CCN(C(=O)c2cccs2)CC1 3.03

And what about the compound CCn1nnc(NC(=O)c2cc(Cl)c(OC)c(Cl)c2)n1 ? 5.93

What do we get for O=C(N[C@H](Cc1ccccc1)C(=O)N1CCCN(Cc2cccs2)CC1)[C@H]1O[C@@H](n2ccc(=O)[nH]c2=O)[C@H](O)[C@@H]1O ? 0.87

Entry O=C(NCCc1ccc(F)cc1)c1n[nH]c2ccccc12 please 1.79

Request: CCCCN1C(=O)C(CC(=O)NC(c2ccccc2)c2ccccc2)CC(C(=O)N2CCOCC2)=C1C (stereo unspecified) 0.19

Try this compound next: Cc1cc(NCCc2c[nH]c3ccccc23)ccc1Oc1cccnc1 -0.68

Same question, OC(COc1ccccc1)CN1CCN(c2cccc(Cl)c2)CC1 (stereo unspecified) this time 4.5

Moving on to O=C(NCCN1CCOCC1)/C(=C/c1ccc(F)cc1)NC(=O)c1ccccc1 -2.27

Also check O=Cc1c(NCCc2cccc(F)c2)c2ccccc2[nH]c1=O 72.1

Cool, now CC(C)OC(=O)c1cc(NC(=O)C2C3CCC(O3)C2C(=O)O)cc(C(=O)OC(C)C)c1 (stereo unspecified) -0.82

Another compound to look at: CCOc1ccc(-n2c(SCC(=O)NC3CCS(=O)(=O)C3)nnc2-c2cccnc2)cc1 (stereo unspecified) -0.1

Input COc1ccc(OCC(O)CNC(=O)Nc2ccc(Cl)cc2)cc1 (stereo unspecified) 9.53

Likewise for COc1ccc(Cn2c(-c3ccc(Cl)cc3)c[n+]3ccccc23)cc1 ? 12.9

Same lookup for Cc1nc(NC(=O)C(C)(C)C)sc1[N+](=O)[O-] , please. 1.6

And the next one, COc1ccc(OC)c(NC(=S)N2CCc3ccccc3C2)c1 ? 69.4

Thanks! And Cc1cccc(C)c1-n1c(C)cc(/C=C2\C(=O)NN(c3ccccc3)C2=O)c1C ? 38.3

// next record CCOc1ccc(Br)cc1CSC(=N)N 70.5

# repeat for C=CCN1C(=O)N(Cc2ccccc2)c2ccccc2S1(=O)=O 0.49

Item: Cc1ccc(C)c(CN2CCC(CNC(=O)C3CCCN(c4ncnc5c4nc4n5CCCCC4)C3)CC2)c1 (stereo unspecified) -0.04

Same question for COc1cc(OC)c(NC(=O)C2CCCN2C(=O)OCc2ccccc2)cc1Cl (stereo unspecified) please. 1.2

Similarly, CC(NC(=O)C(=O)NN=C1CCC(C(C)(C)C)CC1)c1ccccc1 (stereo unspecified) ? -1.32

COC(=O)[C@]12C[C@H](CC(=O)NCCCCc3ccccc3)C(=O)N(Cc3ccc4c(c3)OCO4)C1=C[C@H](C(C)(C)C)O[C@@H]2C , same question. 5.91

Entry CN1CCCc2nc(-c3ccccc3)ccc21 please 1.31

// repeat for COc1ccc(NC(=S)N2CCc3cc(OC)c(OC)cc3C2)cc1 and report 2.44

// next record CC(C)N(Cc1nnc(-c2ccccc2Br)o1)C(=O)c1cc(Cl)nc2ccccc12 4.53

Also O=S(=O)(Cc1ccc(Cl)cc1Cl)c1ccc(Cl)cc1 ? 6.28

And for CCOc1cc(C(=O)N2CCc3cc(OC)c(OC)cc3C2)ccc1OC(F)F ? 3.06

// next record c1ccc2c(c1)OCC(CNc1ncnc3nc[nH]c13)O2 (stereo unspecified) 225

Check CCOc1ccc(Br)cc1S(=O)(=O)N1CCC(C(=O)O)CC1 too. -0.19
